Tested on: HCT-116 colon
Protocol: NCI tumour cell line growth inhibition, 48 h
Experimental Endpoint: TGI

Need TGI for each of these compounds.
1. O=C(Nc1nc2ccc([N+](=O)[O-])cc2s1)C(=O)C(C(=O)c1ccccc1F)C1OC(=O)c2ccccc21 (centres undefined)
2. Cc1ccccc1-n1c(=O)c2ncn(C3CCCO3)c2n(-c2ccccc2C)c1=S (centres undefined)
3. CC(C)(C)OC(=O)NC(Cc1ccccc1)OCc1ccccc1 (centres undefined)
4. CCOc1ccccc1C(=O)N1CCN(c2cc(Cl)cc(Cl)c2)CC1

1. > 100 µM
2. > 100 µM
3. 31.8 µM
4. 4.02 µM

###

Tested on: HS 578T breast
Protocol: NCI tumour cell line growth inhibition, 48 h; in the data active = GI50 below about 0.43 µM; inactive = the rest
Please answer using one outcome listed in active, inactive

Before answering, review these 3 worked examples.
[[record]]
smiles_string = "O=C1/C(=C/c2ccccc2[N+](=O)[O-])Cc2ccccc21"
label = "inactive"

[[record]]
smiles_string = "CO/N=C(\\COc1ccc2c(c1)[nH]c1ccccc12)c1ccc(F)cc1"
label = "inactive"

[[record]]
smiles_string = "CNCCCNCCCCNCCCN1C(=O)c2ccc3c4c(ccc(c24)C1=O)C(=O)N(CCCNCc1ccccc1OC)C3=O"
label = "inactive"


Name the outcome recorded for CCOc1ccccc1C(=O)N1CCN(c2cc(Cl)cc(Cl)c2)CC1 in the assay.
active

Identify the outcome logged in this assay for the compound shown: COc1ccc(-c2[nH]c3ccccc3c2-c2ccc(OC)cc2)cc1
inactive

// return assay outcome for O=C1c2cccnc2C(=O)c2c1c(C(=O)NCCCN1CCCCC1)c1ccccn21
inactive

Dear all, I need the recorded test outcome for COc1cc2c3c(n(C)c(=O)c2cc1OC)-c1cc2c(cc1/C3=C\CCCCN1C(=O)c3ccccc3C1=O)OCO2 , thank you.
inactive

###

Test system: COLO 205 colon
Protocol: NCI tumour cell line growth inhibition, 48 h
Provide the reported TGI of each item.

[[record]]
compound = "O=C(O)C12C3CCC(CC3)C1(C(=O)O)C1CCC2C1 (stereo not given)"
experimental_endpoint = "TGI"
assay_result = "> 100 µM"

[[record]]
compound = "N#CC1C(=O)NC23CCCCC2C1c1ccccc1O3 (stereo not given)"
experimental_endpoint = "TGI"
assay_result = "> 100 µM"

[[record]]
compound = "C=CCC1(OCc2ccccc2)C(=O)C(=O)OC1C1COC(C)(C)O1 (stereo not given)"
experimental_endpoint = "TGI"
assay_result = "> 100 µM"

[[record]]
compound = "CC(=O)Nc1ccc(C(O)/C(=N/N)c2nc3ccc(Cl)cc3[nH]c2=O)cc1 (stereo not given)"
experimental_endpoint = "TGI"
assay_result = "> 100 µM"


// moving on: another record for TGI
Per the records, this compound ( CS(=O)(=O)c1ccc(-c2cc(-c3ccc(S(C)(=O)=O)cc3)[n+](-c3cc(-c4ccc(S(C)(=O)=O)cc4)c([O-])c(-c4ccc(S(C)(=O)=O)cc4)c3)c(-c3ccc(S(C)(=O)=O)cc3)c2)cc1 ) has TGI equal to > 100 µM

###

System: UO-31 renal
Protocol: NCI tumour cell line growth inhibition, 48 h
Experimental Endpoint: TGI

[[record]]
molecule = "COC(=O)C1CC2CC(=NNC(N)=O)CC2C1 (stereo not drawn)"
experimental_endpoint = "TGI"
assay_result = "> 100 µM"

[[record]]
molecule = "Cc1c(/C=N/N=C/c2[nH]c(C(=O)OC(C)(C)C)c(C)c2C)[nH]c(C(=O)OC(C)(C)C)c1C"
experimental_endpoint = "TGI"
assay_result = "> 100 µM"


Next item in the queue.
Record CCCN(CCS(C)(=O)=O)Cc1ccc(-c2ccc3ncnc(Nc4ccc(OCc5cccc(F)c5)c(Cl)c4)c3c2)o1 . Reported TGI: > 25 µM
